system: HLA-DR DRB1*1302 (DR13) (Homo sapiens, UniProt P01903+P01911, A100E/A169T/K41T/L162R/M171V/P40S/Q125H/Q178H/Q39Y/Q99D/R42S/S66N/T262R/V115G/W38E/Y61H)
Sequence (P01903 26-254 limits assumed, other chains not shown): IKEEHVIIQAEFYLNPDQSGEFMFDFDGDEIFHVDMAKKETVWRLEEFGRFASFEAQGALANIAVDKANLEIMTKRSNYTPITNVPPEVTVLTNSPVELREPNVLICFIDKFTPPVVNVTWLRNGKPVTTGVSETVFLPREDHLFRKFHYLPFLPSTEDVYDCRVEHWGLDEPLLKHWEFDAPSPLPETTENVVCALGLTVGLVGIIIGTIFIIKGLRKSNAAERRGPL
assayNotes: biochemical
Type: binding
appliedConditions: DRBI *1302
No end group written: not given here.
Task for the reader: assign each of the following sequences its reported IC50.

>>> observedresult("LTELYFEKGEYFVEM")
"3.16 µM"

Give me IC50 for each of these sequences, listed below.
1. RTAMFQDPQERPRKL
2. RQDILDLWVYHTQGY

1: 17.1 µM; 2: 6.78 µM

Give me IC50 for each of these sequences, listed below.
1. YLVCGERGFFYTPKT
2. PHPLYNMSLLKHQSL
3. GRAVCGGVLVHPQWV
4. KATLQDIVLHLEPQN
5. RETLQEIVLHLEPQN

["9.27 µM", "3.31 µM", "5.46 µM", "0.603 µM", "11.4 µM"]

Give me IC50 for each of these sequences, listed below.
1. DLRVVQQLLMGALTV
2. GEALSTLVLNRLKVG
3. VLFLQMMNVNLQKQL
4. DIRILQELLMGSFGI

0.057 µM
0.029 µM
0.0086 µM
5.8 µM
